Quick reference for Papp at 3 h among some molecules
# assayDetails: Apparent permeability in human Caco-2 cells incubated for 180 mins by LC-MS/MS method
# Assay type: ADME, cell-based
Starred links: 1 amine or outer side, 2 acyl side, 3 side chain; linkers in the order of their positions; H or OH if unused. Positions of bridges follow the written chain, without caps; N, C: chain ends. Non-standard residues stand in square brackets, D forms with d. Residues, ends and D or L forms follow the SMILES beside them. *: point of attachment. hPhe(3-Cl-4-CF3) = N[C@@H](CCc1ccc(C(F)(F)F)c(Cl)c1)C(=O)O; X2 = CN([C@@H](CC(=O)[*:2])C(=O)n1cccc1)[*:1]; NMePhe(4-Cl) = CN[C@@H](Cc1ccc(Cl)cc1)C(=O)O; Phe(3-Cl) = N[C@@H](Cc1cccc(Cl)c1)C(=O)O; NMeCha = CN[C@@H](CC1CCCCC1)C(=O)O; NMeChg = CN[C@H](C(=O)O)C1CCCCC1; NMeF = CN[C@@H](Cc1ccccc1)C(=O)O; NMeD = CN[C@@H](CC(=O)O)C(=O)O; NMeL = CN[C@@H](CC(C)C)C(=O)O; NMeNle = CCCC[C@H](NC)C(=O)O; NMeAc5c = CNC1(C(=O)O)CCCC1; NMeV = CN[C@H](C(=O)O)C(C)C; NMeA = CN[C@@H](C)C(=O)O; Piperidide = C1CCN(*)CC1; Ac5c = NC1(C(=O)O)CCCC1; Aze = O=C(O)[C@@H]1CCN1; Sar = CNCC(=O)O
Unit ×10⁻⁶ cm/s implied. Number only.

Answered cases to consult:
CC[C@H](C)[C@@H]1NC(=O)C2(CCCC2)N(C)C(=O)C[C@@H](C(=O)N2CCCCC2)N(C)C(=O)[C@H](C2CCCCC2)N(C)C(=O)C2(CCCC2)NC(=O)[C@@H]2CCCN2C(=O)[C@H](CCc2ccc(C(F)(F)F)c(Cl)c2)NC(=O)CN(C)C(=O)[C@H](CC2CCCCC2)N(C)C(=O)CN(C)C(=O)CN(C)C1=O ([NMeAc5c]I[Sar][Sar][NMeCha][Sar][hPhe(3-Cl-4-CF3)]P[Ac5c][NMeChg][NMeD]-Piperidide; lactam N-11) : 0.62
CC[C@H](C)[C@@H]1NC(=O)[C@H](C)N(C)C(=O)C[C@@H](C(=O)n2cccc2)N(C)C(=O)[C@H](C(C)C)N(C)C(=O)[C@H](Cc2ccccc2)N(C)C(=O)[C@H](Cc2ccccc2)NC(=O)[C@H](Cc2cccc(Cl)c2)NC(=O)CN(C)C(=O)[C@H](Cc2ccc(Cl)cc2)N(C)C(=O)CN(C)C(=O)CN(C)C1=O (cyclo(F[NMeF][NMeV][X2][NMeA]I[Sar][Sar][NMePhe(4-Cl)][Sar][Phe(3-Cl)])) : 0.11
CCCC[C@H]1C(=O)N(C)[C@H](C(=O)n2cccc2)CC(=O)N(C)[C@@H](C)C(=O)N[C@@H]([C@@H](C)CC)C(=O)N(C)CC(=O)N(C)CC(=O)N(C)[C@@H](Cc2ccc(Cl)cc2)C(=O)N(C)CC(=O)N[C@@H](Cc2cccc(Cl)c2)C(=O)N[C@@H](Cc2ccccc2)C(=O)N(C)[C@@H](Cc2ccccc2)C(=O)N1C (cyclo(F[NMeF][NMeNle][X2][NMeA]I[Sar][Sar][NMePhe(4-Cl)][Sar][Phe(3-Cl)])) : 0.09

(Q) # return recorded Papp at 3 h for entry CC[C@H](C)[C@@H]1NC(=O)[C@H](CC(C)C)N(C)C(=O)C[C@@H](C(=O)N2CCCCC2)N(C)C(=O)[C@H](C2CCCCC2)N(C)C(=O)C2(CCCC2)NC(=O)[C@@H]2CCCN2C(=O)[C@H](CCc2ccc(C(F)(F)F)c(Cl)c2)NC(=O)CN(C)C(=O)[C@H](CC2CCCCC2)N(C)C(=O)[C@@H]2CCN2C(=O)[C@H](C)N(C)C1=O ([NMeL]I[NMeA][Aze][NMeCha][Sar][hPhe(3-Cl-4-CF3)]P[Ac5c][NMeChg][NMeD]-Piperidide; lactam N-11)
(A) 0.97
